The reported measurements were obtained from patent USRE46630E1.

Target: Human neutrophil elastase (Homo sapiens, UniProt P08246)
Sequence (P08246 30-267): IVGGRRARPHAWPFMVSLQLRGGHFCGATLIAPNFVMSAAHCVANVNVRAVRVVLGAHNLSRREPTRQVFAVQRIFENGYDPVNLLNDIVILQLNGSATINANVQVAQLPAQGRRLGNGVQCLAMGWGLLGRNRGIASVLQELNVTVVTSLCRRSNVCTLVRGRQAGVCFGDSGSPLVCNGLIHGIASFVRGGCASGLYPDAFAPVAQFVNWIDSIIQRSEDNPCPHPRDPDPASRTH
Experiment: Human Neutrophil Elastase Assay
Details: Neutrophil Elastase assay; substrate MeOSuc-Ala-Ala-Pro-Val-AMC 250 μM; 15 min preincubation, 60 min incubation at room temperature; pH 7.5
Catalogue of compounds with associated pIC50
Friendly reminder that pIC50 comes from taking -log10 of the concentration in mol/L.

Consider the following illustrative entries.
- CCNC(=O)c1cn(C(C)c2ccc(C#N)cn2)c(C)c(-c2cccc(C(F)F)c2)c1=O (stereo not shown) [Example 18]: 8.27
- Cc1c(-c2ccnc(C(F)(F)F)c2)c(=O)c(C(=O)NCCC#N)cn1C(C)c1ccc(C#N)cc1 (stereo not shown) [Example 9.54]: 8.39
- Cc1c(-c2ccnc(C(F)(F)F)c2)c(=O)c(C(=O)NCCO)cn1C(C)c1ccc(C#N)cc1 (stereo not shown) [Example 9.9]: 8.12
- Cc1c(-c2cccc(C(F)(F)F)c2)c(=O)c(C(=O)NCc2ccc(S(C)(=O)=O)cc2)cn1Cc1ccc(C#N)nc1 [Example 2.4]: 8.85

Query pIC50 on Human neutrophil elastase (Homo sapiens, UniProt P08246) for Cc1c(-c2cccc(C(F)(F)F)c2)c(=O)c(C(=O)NCc2ccc(S(C)(=O)=O)cc2)cn1Cc1ccccc1 [Example 2.1]
7.26

====

Biological target: Human neutrophil elastase (Homo sapiens)
Test: Human Neutrophil Elastase Assay
Details: Neutrophil Elastase assay; substrate MeOSuc-Ala-Ala-Pro-Val-AMC 250 μM; 15 min preincubation, 60 min incubation at room temperature; pH 7.5
# maps each entry to its IC50

Record excerpt, results attached:
- Cc1c(-c2cccc(C(F)(F)F)c2)c(=O)c(C(=O)NCc2ccc(S(C)(=O)=O)cc2)cn1[C@H](C)c1ccc(C#N)cc1: < 1 nM
- Cc1c(-c2cccc(C(F)(F)F)c2)c(=O)c(C(=O)NCCS(C)(=O)=O)cn1C(C)c1ccc(C#N)cc1 (stereo not shown): 1.2 nM
- Cc1c(-c2cccc(C(F)F)c2)c(=O)c(C(=O)NCc2cnn(C)c2)cn1C(C)c1ccc(C#N)cc1 (stereo not shown) [Example 8.14]: 3.6 nM

What value of measured IC50 is listed for Cc1c(-c2ccnc(C(F)(F)F)c2)c(=O)c(C(=O)NCC2CCCCO2)cn1C(C)c1ccc(C#N)cc1 (stereo not shown) ?
32.9 nM

Quick check: IC50 of Cc1c(-c2cccc(C(F)(F)F)c2)c(=O)c(C(=O)NC2CNC(=O)C2)cn1C(C)c1ccc(C#N)cc1 (stereo not shown) ?
2.4 nM

For the molecule Cc1c(-c2ccnc(C(F)(F)F)c2)c(=O)c(C(=O)NCC(F)F)cn1C(C)c1ccc(C#N)cc1 (stereo not shown) , what IC50 is on record?
7.3 nM

Which IC50 is reported for this molecule? Cc1c(-c2cccc(C(F)(F)F)c2)c(=O)c(C(=O)NCc2ccc([S+](C)[O-])cc2)cn1Cc1ccc(C#N)cc1 (stereo not shown)
1.1 nM

====

Molecular target: Human neutrophil elastase (Homo sapiens)
Experiment: Human Neutrophil Elastase Assay
Conditions: Neutrophil Elastase assay; substrate MeOSuc-Ala-Ala-Pro-Val-AMC 250 μM; 15 min preincubation, 60 min incubation at room temperature; pH 7.5
Reported values of pIC50 for individual entries
pIC50 is defined as minus the log10 of a concentration measured in mol/L.

• Cc1c(-c2cccc(C(F)(F)F)c2)c(=O)c(C(=O)NC2CNC(=O)C2)cn1Cc1ccc(C#N)cc1 (centres unmarked) = 7.92
• Cc1c(-c2cccc(C(F)(F)F)c2)c(=O)c(C(=O)NCc2ccc(S(C)(=O)=O)cn2)cn1Cc1ccc(C#N)c(F)c1 = 9.00
• Cc1c(-c2cccc(C(F)(F)F)c2)c(=O)c(C(=O)NCCO)cn1C(C)c1ccc(C#N)cc1 (centres unmarked) = 8.64

Entry Cc1c(-c2cccc(C(F)(F)F)c2)c(=O)c(C(=O)NCc2ccncc2)cn1Cc1ccc(C#N)cc1 : reported pIC50 = ?
8.85

Any idea what its pIC50 is? The molecule is Cc1c(-c2ccnc(C(F)(F)F)c2)c(=O)c(C(=O)NC2CCCCC2O)cn1C(C)c1ccc(C#N)cc1 (centres unmarked)
7.65

Name the recorded pIC50 for Cc1c(-c2cccc(C(F)(F)F)c2)c(=O)c(C(=O)NC2CCN(C)C2=O)cn1C(C)c1ccc(C#N)cc1 (centres unmarked) .
8.70

State the recorded pIC50 for this entry: Cc1c(-c2cccc(C(F)(F)F)c2)c(=O)c(C(=O)NC2CCCNC2=O)cn1Cc1ccc(C#N)cc1 (centres unmarked)
8.31

Endpoint output: pIC50 of Cc1c(-c2cccc(C(F)(F)F)c2)c(=O)c(C(=O)NCC2(O)CC2)cn1C(C)c1ccc(C#N)cn1 (centres unmarked) . Value?
7.52

Quick one: pIC50 of Cc1c(-c2cccc(C(F)F)c2)c(=O)c(C(=O)NC2CCNC2=O)cn1C(C)c1ccc(C#N)cc1 (centres unmarked) ?
8.85

Look up pIC50: Cc1c(-c2ccnc(C(F)(F)F)c2)c(=O)c(C(=O)NC(C)C#N)cn1C(C)c1ccc(C#N)cc1 (centres unmarked)
8.34

What pIC50 value was documented for this molecule, CCNC(=O)c1cn(C(C)c2ccc(C#N)cc2)c(C)c(-c2cccc(C(F)(F)F)c2)c1=O (single isomer, unassigned) [Example 10B] ?
6.54

Looking for the measured pIC50 of Cc1nnc(CNC(=O)c2cn(Cc3ccc(C#N)cc3)c(C)c(-c3cccc(C(F)(F)F)c3)c2=O)o1 , can you help?
8.10

Requested read-out: pIC50. Entry: Cc1c(-c2cccc(C(F)(F)F)c2)c(=O)c(C(=O)NC2CCNC2=O)cn1Cc1ccc(C#N)cc1 (centres unmarked)
8.21
